observable: melting point

Tell me melting point reported for CCC1(O)CC(OC2CC(N(C)C)C(OC3CC(O)C(OC4CCC(=O)C(C)O4)C(C)O3)C(C)O2)c2c(cc3c(c2O)C(=O)c2c(O)cccc2C3=O)C1C(=O)OC (stereo not given)
148 °C

Tell me melting point reported for CCCCCCCCCCCCSc1cc(SCCCCCCCCCCCC)c2ccc3c(SCCCCCCCCCCCC)cc(SCCCCCCCCCCCC)c4ccc1c2c43
110 °C

Tell me melting point reported for CC(C)n1c(CC[C@@H](O)C[C@@H](O)CC(=O)O)c(-c2ccc(F)cc2)c(-c2ccccc2)c1C(=O)NCc1cccc(C(=O)O)c1
140 to 141 °C

Tell me melting point reported for CCCCCCc1cc(C=C2C(=O)N(CC(CC)CCCC)C(=O)C(C#N)=C2C)sc1-c1ccc(-c2ccc(-c3sc(-c4ccc(N(c5ccccc5)c5ccccc5)cc4)cc3CCCCCC)s2)s1 (stereo not given)
153 to 158 °C

Tell me melting point reported for Cc1cc(F)c(-n2nc(C(F)(F)F)nc2NC(=O)C(F)(F)F)cc1C(SC(c1cc(-n2nc(C(F)(F)F)nc2NC(=O)C(F)(F)F)c(F)cc1C)C(F)(F)F)C(F)(F)F (stereo not given)
122 to 125 °C

Tell me melting point reported for CC(C)[C@H](NC(=O)N(C)Cc1nc2ccccc2[nH]1)C(=O)N[C@@H](Cc1ccccc1)C[C@H](O)[C@H](Cc1ccccc1)NC(=O)[C@@H](NC(=O)N(C)Cc1nc2ccccc2[nH]1)C(C)C
150 to 152 °C

Tell me melting point reported for COc1ccc(C(CCCC(C(=O)C(CCCC(c2ccc(OC)c(OC)c2)N2C(=O)c3ccccc3C2=O)N2C(=O)c3ccccc3C2=O)N2C(=O)c3ccccc3C2=O)N2C(=O)c3ccccc3C2=O)cc1OC (stereo not given)
195 °C

Tell me melting point reported for CN(C(=O)Cc1c(-c2ccccc2)c2ccccc2c(=O)n1C)c1cc(C(F)(F)F)cc(C(F)(F)F)c1
193 to 194 °C

Tell me melting point reported for O=C(NCCCCCCCCCCCCNC(=O)C(O)C(O)C(O)C(O)COC1OC(CO)C(O)C(O)C1O)C(O)C(O)C(O)C(O)COC1OC(CO)C(O)C(O)C1O (stereo not given)
114 to 123 °C

Tell me melting point reported for COc1cc(OC)c(/C=C/C(c2ccc(OC)c(NC(C)=O)c2)S(=O)(=O)C(/C=C/c2c(OC)cc(OC)cc2OC)c2ccc(OC)c(NC(C)=O)c2)c(OC)c1 (stereo not given)
220 to 223 °C

Tell me melting point reported for CCOC(=O)OC1=C(c2cc(C)ccc2C)C(=O)NC1CC1CCS(=O)(=NC(=O)C(F)(F)F)CC1 (stereo not given)
87 to 89 °C

Tell me melting point reported for CCCCN(c1nc(NC(C)(C)CC(C)(C)C)nc(N(CCCC)C2CC(C)(C)N(OC3CCCCC3)C(C)(C)C2)n1)C1CC(C)(C)N(OC2CCCCC2)C(C)(C)C1
85 to 103 °C

Tell me melting point reported for CCOc1cc(C(=O)N2CCC(CCN3CCC(C(=O)c4nc5ccccc5n4Cc4ccc(F)cc4)CC3)(c3ccc(OC)c(OC)c3)C2)cc(OCC)c1OCC (stereo not given)
139 to 141 °C

Tell me melting point reported for Cc1ccn2c(-c3ccnc(-c4ccc(OCc5cn(C)cn5)cc4)c3)c(-c3cccc(C)n3)nc2c1
217 °C

Tell me melting point reported for CCOC(=O)COc1cccc2c1CCc1sc(S(=O)CC(c3ccccc3)c3ccccc3)nc1-2 (stereo not given)
127 to 129 °C

Tell me melting point reported for CC(CCOc1c(I)cc(I)cc1I)Oc1c(I)cc(I)cc1I (stereo not given)
173 to 175 °C

Tell me melting point reported for CC1CC2C3CCC4=CC(=O)C=CC4(C)C3(Cl)C(O)CC2(C)C1(O)C(=O)CO (stereo not given)
217 to 222 °C

Tell me melting point reported for C=CCN(CC=C)c1nc(OC)nc(N(CCCCCCN(c2nc(OC)nc(N(CC=C)CC=C)n2)C2CC(C)(C)NC(C)(C)C2)C2CC(C)(C)NC(C)(C)C2)n1
113 to 115 °C

Tell me melting point reported for Cc1ccc(S(=O)(=O)N2CCN(C)CCN(S(=O)(=O)c3ccc(C)cc3)CCN(S(=O)(=O)c3ccc(C)cc3)CCN(S(=O)(=O)c3ccc(C)cc3)CC2)cc1
170 to 171 °C

Tell me melting point reported for COc1cc(C(=O)NC2OC(COC(C)=O)C(OC3OC(COC(C)=O)C(OC(C)=O)C(OC(C)=O)C3OC(C)=O)C(OC(C)=O)C2OC(C)=O)ccc1Cl (stereo not given)
106 to 110 °C

Tell me melting point reported for CN=S(=O)(Cc1ccc(C(F)(F)F)nc1)c1nc(-c2ccc(OC)cc2)cs1 (stereo not given)
158 to 161 °C

Tell me melting point reported for CC(C)(C)c1cc(CCC(=O)OCC(COC(=O)CCc2cc(C(C)(C)C)c(O)c(C(C)(C)C)c2)(COC(=O)CCc2cc(C(C)(C)C)c(O)c(C(C)(C)C)c2)COC(=O)CCc2cc(C(C)(C)C)c(O)c(C(C)(C)C)c2)cc(C(C)(C)C)c1O
55 to 85 °C

Tell me melting point reported for CC(C)(C)c1cc(CCC(=O)NN=C(O)c2cc(-c3ccc(C(=O)O)c(C(O)=NNC(=O)CCc4cc(C(C)(C)C)c(O)c(C(C)(C)C)c4)c3)ccc2C(=O)O)cc(C(C)(C)C)c1O
291 to 293 °C

Tell me melting point reported for CCCCCCCCCCOc1cc2c(O)c(C(=O)OCC)cnc2cc1OCC
86.5 °C

Tell me melting point reported for Cc1c(Cc2ccccc2)sc2nc(N)[nH]c(=O)c12
292 to 294 °C
